Read-out: sulfotransferase 2A1 (SULT2A1), SULT2A1 (gene 6822)
Assay: LTEA_HepaRG_SULT2A1: Life Technologies and Expression Analysis (LTEA) Assay for sulfotransferase 2A1 (SULT2A1) using HepaRG (AID 2283531)
Conditions: mRNA level, 48 h; actives raise or lower the signal
Calls of active or inactive are those of the source. How the source made its calls: active means hit-call score of the fitted dose curve at least 0.9, where 1 is the maximum; inactive means score below 0.9.
TEST_READOUT: outcome

1. O=C(Nc1ccccc1)c1ccccc1I | inactive
2. CCCCC(CC)COC(=O)c1ccc(C(=O)OCC(CC)CCCC)c(C(=O)OCC(CC)CCCC)c1 (stereo not given) | inactive
3. ClC1=C(Cl)C2(Cl)C3C(Cl)C=CC3C1(Cl)C2(Cl)Cl (stereo not given) | inactive
4. CC(C)(O)c1cnn2c(-c3ccc(F)c(-c4c(F)cccc4C#N)c3)cnc2n1 | inactive
5. O=P(OCCCl)(OCCCl)OCCCl | inactive

====

Biological target: Retinoic acid receptor RXR-alpha (Homo sapiens) (UniProt P19793)
Sequence (P19793 whole entry, looked up): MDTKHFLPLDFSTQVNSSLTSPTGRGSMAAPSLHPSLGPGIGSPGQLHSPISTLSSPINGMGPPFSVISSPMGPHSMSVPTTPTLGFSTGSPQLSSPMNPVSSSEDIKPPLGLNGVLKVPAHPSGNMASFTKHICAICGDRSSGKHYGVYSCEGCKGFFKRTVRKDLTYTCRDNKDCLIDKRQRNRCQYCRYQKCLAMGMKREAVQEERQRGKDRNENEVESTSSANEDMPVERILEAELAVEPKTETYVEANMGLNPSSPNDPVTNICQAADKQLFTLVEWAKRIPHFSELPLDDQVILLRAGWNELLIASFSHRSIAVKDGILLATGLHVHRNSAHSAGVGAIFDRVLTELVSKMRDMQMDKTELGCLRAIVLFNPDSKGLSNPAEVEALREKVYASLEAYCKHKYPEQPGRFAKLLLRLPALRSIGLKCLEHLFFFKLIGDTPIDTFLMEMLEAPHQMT
Assay: OT_NURR1_NURR1RXRa_1440: Odyssey Thera (OT) 24-hour HEK293T Protein Complementation Assay for Nurr1/retinoid X receptor (RXR) (AID 2283386)
Records with an inconclusive call do not appear. Active and inactive are the calls of the source. Rule for the calls: active = hit-call score of the fitted dose curve at least 0.9, where 1 is the maximum; inconclusive = response in the unintended direction; inactive = score below 0.9.
Classes used: yes for active, no for inactive

1. Cc1ccc(N=C=O)cc1N=C=O | no
2. N#CC(Br)(Br)C(N)=O | no
3. CCCCCCCCOC(=O)c1ccc(C(=O)OCCCCCCCC)c(C(=O)OCCCCCCCC)c1 | no
4. Cc1ccc(N)c(N)c1 | no
5. O=P(OCCCl)(OCCCl)OCCCl | no
6. Oc1ccccc1Cl | no
7. O=[N+]([O-])C(Br)(CO)CO | no
8. c1ccc(N=Nc2ccccc2)cc1 | no
9. CC(O)CCO (stereo not drawn) | no
10. CS(=O)(=O)NC(=O)c1cc(Oc2ccc(C(F)(F)F)cc2Cl)ccc1[N+](=O)[O-] | no
11. Clc1ccc(C(c2ccc(Cl)cc2)C(Cl)(Cl)Cl)cc1 | no
12. CCCCCOC(=O)c1ccccc1C(=O)OCCCCC | no
13. CCCCCCCCn1sccc1=O | yes
14. OCCCl | no
15. ClCCOCCCl | no
16. CCC[CH2][Sn]([Cl])([CH2]CCC)[CH2]CCC | no
17. Cc1cccc(N)c1N | no
18. C=CCc1ccc2c(c1)OCO2 | no
19. CCN(CC)CCO | no
20. Clc1ccc(C(c2ccc(Cl)cc2)C(Cl)Cl)cc1 | yes
21. OCCOCCO | no
22. O=[N+]([O-])c1ccc(Oc2ccc(Cl)cc2Cl)cc1 | no
23. C1=Cc2cccc3cccc1c23 | no

====

Experiment: APR_HepG2_NuclearSize_72hr: Apredica 72-hour HepG2 Assay for Nuclear Size (AID 2282925)
Details: high-content imaging, actives raise or lower the signal
The source made the active and inactive calls. The calls were made as follows: active = hit-call score of the fitted dose curve at least 0.9, where 1 is the maximum; inactive = score below 0.9.
Outcomes: active, inactive

1) OCCCl | inactive
2) c1ccc(C2CO2)cc1 (configuration not stated) | inactive
3) c1ccc(NNc2ccccc2)cc1 | inactive
4) C[N+](C)(C)CC1CO1 (configuration not stated) | inactive
5) CCOC(=O)[C@]1(c2ccccc2)Oc2ccccc2[C@@H]1N | inactive
6) C=CCc1ccc2c(c1)OCO2 | inactive
7) CC(C)(C)OOC(C)(C)CCC(C)(C)OOC(C)(C)C | inactive
8) Cc1ccc(N)c(N)c1 | inactive
9) C1=Cc2cccc3cccc1c23 | inactive
10) CCC12COCN1COC2 | inactive
11) Clc1ccccc1Cl | inactive
12) CN(C)[C@@H]1C(=O)C(C(N)=O)=C(O)[C@@]2(O)C(=O)C3=C(O)c4c(O)cccc4[C@@](C)(O)[C@H]3C[C@@H]12 | inactive
13) Brc1ccc(Oc2ccccc2)cc1 | inactive
14) CN(C)c1ccccc1 | inactive
15) [As]#[In] | inactive
16) [O-][Cl+]O | active
17) CC(C)(C)C(O)(CCc1ccc(Cl)cc1)Cn1cncn1 (configuration not stated) | inactive

====

Test: BSK_SAg_PBMCCytotoxicity: PBMC Cytotoxicity Assessment in the BioMAP Diversity Plus: SAg Assay (AID 2283093);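 further: PBMC viability measured as Alamar Blue reduction fluorescence at 546/580 nm; fitted both ways against DMSO so a hit may be loss or gain of signal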
Settings: primary human HUVEC with PBMC
The source made the active and inactive calls. How the source made its calls: active means hit-call score of the fitted dose curve at least 0.9, where 1 is the maximum; inactive means score below 0.9.
TEST_READOUT: outcome

1. CCN(CC)CCO | inactive
2. CS(=O)(=O)NC(=O)c1cc(Oc2ccc(C(F)(F)F)cc2Cl)ccc1[N+](=O)[O-] | inactive
3. Cn1cc(-c2ccccc2)c(=O)c(-c2cccc(C(F)(F)F)c2)c1 | inactive

====

Target: Hypoxia-inducible factor 1-alpha (Homo sapiens) (UniProt Q16665)
Sequence (Q16665 whole entry, looked up): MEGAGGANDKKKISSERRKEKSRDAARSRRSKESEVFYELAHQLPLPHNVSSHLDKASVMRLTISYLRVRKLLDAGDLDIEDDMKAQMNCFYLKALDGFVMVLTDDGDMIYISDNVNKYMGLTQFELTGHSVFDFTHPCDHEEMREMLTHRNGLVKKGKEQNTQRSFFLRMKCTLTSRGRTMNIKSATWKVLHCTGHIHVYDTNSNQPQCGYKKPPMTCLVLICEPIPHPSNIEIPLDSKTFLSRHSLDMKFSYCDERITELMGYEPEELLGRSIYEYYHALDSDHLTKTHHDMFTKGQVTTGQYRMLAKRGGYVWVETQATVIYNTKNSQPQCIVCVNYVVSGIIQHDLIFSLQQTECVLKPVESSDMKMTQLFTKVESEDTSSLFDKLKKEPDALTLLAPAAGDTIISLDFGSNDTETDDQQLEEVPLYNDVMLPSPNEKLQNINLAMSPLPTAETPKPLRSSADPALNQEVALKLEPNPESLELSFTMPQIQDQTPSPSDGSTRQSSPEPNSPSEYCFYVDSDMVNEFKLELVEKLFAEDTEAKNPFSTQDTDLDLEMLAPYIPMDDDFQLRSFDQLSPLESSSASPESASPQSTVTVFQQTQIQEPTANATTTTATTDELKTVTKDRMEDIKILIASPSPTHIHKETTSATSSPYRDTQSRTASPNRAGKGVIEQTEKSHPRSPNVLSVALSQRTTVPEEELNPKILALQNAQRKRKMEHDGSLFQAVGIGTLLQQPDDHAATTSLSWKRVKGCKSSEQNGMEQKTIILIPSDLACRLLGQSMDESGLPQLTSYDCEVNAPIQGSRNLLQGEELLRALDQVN
Test: ATG_HIF1a_CIS: Attagene CIS-FACTORIAL HepG2 Assay for human Hypoxia Inducible Factor 1 (HIF1A) (AID 2282951)
Details: HepG2 Attagene cis-factorial HIF1a reporter transcription; actives raise or lower the signal
Active and inactive are the calls of the source. How the source made its calls: active means hit-call score of the fitted dose curve at least 0.9, where 1 is the maximum; inactive means score below 0.9.
Outcomes: t (active), f (inactive)

1. CC(C)(OOC(C)(C)c1ccccc1)c1ccccc1 | f
2. CC(C)(C)OOC(=O)c1ccccc1 | f
3. Cc1ccc(N)c(N)c1 | f
4. O=P(OCCCl)(OCCCl)OCCCl | f
5. Nc1cc(Cl)cc(C(=O)O)c1Cl | f
6. O=Cc1ccco1 | f
7. N#CC(Br)Br | f
8. Oc1ccccc1Cl | f
9. Nc1ccc(Cl)cc1N | t
10. CCCCCCCCCCCCCN1CC(C)OC(C)C1 (configuration not stated) | f
11. ClC1=C(Cl)C2(Cl)C3C(Cl)C=CC3C1(Cl)C2(Cl)Cl (configuration not stated) | f
12. CNC(=O)Oc1cccc2c1OC(C)(C)C2 | f
13. [O-][Cl+]O | f
14. CCC12COCN1COC2 | f
15. CC(C)(O)c1cnn2c(-c3ccc(F)c(-c4c(F)cccc4C#N)c3)cnc2n1 | t
16. Nc1ccc(N=Nc2ccccc2)cc1 | t
17. CCCSC(=O)N(CCC)CCC | f
18. CCCCOC(=O)c1ccccc1C(=O)OCc1ccccc1 | f
19. N#CC(Br)(Br)C(N)=O | f
20. CCN(CC)CCO | f
21. Cc1cccc(N)c1N | t
22. OCCCBr | f

====

Read-out: growth arrest and DNA damage 45 (GADD45B), GADD45B (gene 4616)
Assay: LTEA_HepaRG_GADD45B: Life Technologies and Expression Analysis (LTEA) Assay for growth arrest and DNA damage 45 (GADD45B) using HepaRG (AID 2283461)
Conditions: mRNA level, 48 h; actives raise or lower the signal
Active and inactive are the calls of the source. The calls were made as follows: active = hit-call score of the fitted dose curve at least 0.9, where 1 is the maximum; inactive = score below 0.9.
Outcomes: y for active, n for inactive

1. CN(C)c1ccccc1 | n
2. Cn1cc(-c2ccccc2)c(=O)c(-c2cccc(C(F)(F)F)c2)c1 | n
3. O=C(N[C@H](c1ccccc1)[C@@H]1CN2CCC1CC2)c1c(Cl)ccc(C(F)(F)F)c1Cl | y
4. COC(=O)Nc1nc2ccccc2[nH]1 | n
5. CN(C)C(=O)Nc1ccc(Cl)cc1 | n
6. ClC1=C(Cl)[C@]2(Cl)[C@H]3[C@H]([C@@H]4C=C[C@H]3C4)[C@@]1(Cl)C2(Cl)Cl | n
7. CCNS(=O)(=O)C(F)(F)C(F)(F)C(F)(F)C(F)(F)C(F)(F)C(F)(F)C(F)(F)C(F)(F)F | n
8. O=C(Oc1ccc(Br)cc1)N1CCN2CCC1CC2 | n
9. CC(C)(O)c1cnn2c(-c3ccc(F)c(-c4c(F)cccc4C#N)c3)cnc2n1 | n
10. c1ccc(NNc2ccccc2)cc1 | y
11. CN(C)c1ccc(C(=O)c2ccc(N(C)C)cc2)cc1 | n
12. O=[N+]([O-])C(Br)(CO)CO | n
13. O=C(Nc1ccccc1)c1ccccc1I | y
14. CCN(CC)CCO | n
15. Cc1ccc(N=C=O)cc1N=C=O | n
16. C[N+](C)(C)CC1CO1 (stereo not drawn) | n
17. CC(C)(C)C(O)(CCc1ccc(Cl)cc1)Cn1cncn1 (stereo not drawn) | n
18. CNC(=O)Oc1cccc2c1OC(C)(C)C2 | y
19. Oc1ccccc1Cl | n
20. C[C@]12C=CC3=C4CCC(=O)C=C4CC[C@H]3[C@@H]1CC[C@@H]2O | n
21. Nc1ccc(Cl)cc1N | y
22. C=CCc1ccc2c(c1)OCO2 | n
23. CC(C)(OOC(C)(C)c1ccccc1)c1ccccc1 | y
24. Nc1ccc(Cc2ccc(N)cc2)cc1 | n
25. CCCCCOC(=O)c1ccccc1C(=O)OCCCCC | n
26. O=P(OCCCl)(OCCCl)OCCCl | n
27. c1ccc2c(c1)-c1cccc3cccc-2c13 | n
28. OCCOCCO | n
29. [O-][Cl+]O | n
30. Nc1ccc([N+](=O)[O-])cc1 | n
31. O=C(O)C1C2CCC(O2)C1C(=O)O (stereo not drawn) | n
32. CC(C)N(Cc1ccccc1)C(=O)C(C)(C)C | n
33. CCN(CC)N=O | n
34. CO[C@@H]1[C@H](OC(=O)NC(=O)CCl)CC[C@]2(CO2)[C@H]1[C@@]1(C)O[C@@H]1CC=C(C)C | n
35. CCCCC(CC)COC(=O)c1ccc(C(=O)OCC(CC)CCCC)c(C(=O)OCC(CC)CCCC)c1 (stereo not drawn) | n
36. O=C1CCCO1 | n
37. CCC12COCN1COC2 | n
38. Clc1ccc(C(c2ccc(Cl)cc2)C(Cl)Cl)cc1 | n
39. CN(C)[C@@H]1C(=O)C(C(N)=O)=C(O)[C@@]2(O)C(=O)C3=C(O)c4c(O)cccc4[C@@](C)(O)[C@H]3C[C@@H]12 | n
40. N#CC(Br)Br | n
41. OCCCBr | n
42. [Cl-].[Cl-].[Hg+2] | y
43. C1=Cc2cccc3cccc1c23 | n
44. CCCCCCCCCCCCCN1CC(C)OC(C)C1 (stereo not drawn) | n
45. Clc1ccc(C(c2ccc(Cl)cc2)C(Cl)(Cl)Cl)cc1 | n
46. Clc1ccccc1Cl | n
47. CCOC(=O)[C@]1(c2ccccc2)Oc2ccccc2[C@@H]1N | y
48. COc1cc(C=O)cc2c1[C@H](COC(N)=O)[C@]1(OC(C)=O)ON2C[C@H]2[C@@H]1N2C(C)=O | y
